- method-summary: Distribution coefficient, logD of the compound by chromatography
- Type: physicochemical
- test-context: octanol/water
measurement-kind: chromatographic logD

INSERT INTO assay_data (structure_smiles_string, val) VALUES
  ('CNC(=O)c1cc(C(=O)NC2CC2)cn([C@@H](C)c2ccccc2)c1=O', 3.3),
  ('CNC(=O)c1cc(C(=O)N[C@H]2CC[C@H](O)CC2)c([C@@H](C)c2ccccc2Cl)o1', 3.1),
  ('CNC(=O)c1cc(C(=O)N[C@H]2[C@@H]3C[C@H](O)C[C@@H]32)n([C@@H](C)c2cccc(Cl)c2)n1', 3.7),
  ('CNC(=O)c1cc(C(=O)N[C@H]2CC[C@H](O)CC2)c([C@@H](C)c2cccc(Cl)c2)o1', 3.5),
  ('CNC(=O)c1cc(C(=O)N[C@H]2CC[C@H](O)CC2)c([C@@H](C)c2cccc(F)c2)o1', 4.1),
  ('CNC(=O)c1cc(C(=O)N[C@H]2CC[C@H](O)CC2)c([C@@H](C)c2ccc(Cl)cc2)o1', 3.5),
  ('CNC(=O)c1cc(C(=O)NC2CC2)cn([C@H](C)c2ccccc2)c1=O', 3.5),
  ('CNC(=O)c1cc(C(=O)NC2CC2)c([C@@H](C)c2ccccc2)o1', 3.6),
  ('CNC(=O)c1cc(C(=O)N[C@H]2CC[C@H](O)CC2)c([C@@H](C)c2cccc(C)c2)o1', 3.3);
